# System: SK-MEL-28 melanoma
# EXPERIMENT: NCI-60 one-dose screen, 48 h (100 = growth as untreated, 0 = no growth, -100 = all killed)
# CONDITION: 10 µM unless noted
Compounds without any hit were thinned out: in the full panel of roughly 83,000, 20% have a hit.
READOUT_LABEL: growth (%)
Field: numeric (%). Do not append units.

COMPOUND | UNIT_ANNOTATION | growth
O=C(Nc1ccc(-n2cc(-c3ccncc3)c(-c3ccc(O)c(Cl)c3)n2)cc1)Nc1ccc(Cl)c(C(F)(F)F)c1 | % | 20.1
CC(C)[C@@H]1NC(=O)[C@]2(C)CSC(=N2)c2ccnc(c2)CNC(=O)C[C@@H](/C=C/CCS)OC1=O | % | 16.6

What growth value was documented for this compound, CC(Cl)(CCl)CS(=O)(=O)c1ccc(Cl)cc1 (centres undefined) ? 117

What growth value was documented for this compound, `O=S(=O)(Nc1cccc2cc(OS(=O)(=O)c3ccccc3)ccc12)c1ccccc1` ? 66.4

What growth value was documented for this compound, `Nc1ncc(-c2ccc3ncnc(Nc4cncc(Cl)c4)c3c2)cn1` ? 69.5

What growth value was documented for this compound, `COc1ccc(-c2cc3ccc(N(C)C)cc3nc2N)c(F)c1` ? 38.4

What growth value was documented for this compound, `O=C(Nc1ccc(-n2cc(-c3ccncc3)c(-c3ccc(O)c(Cl)c3)n2)cc1)c1ccc(Cl)c(Cl)c1` ? 59.7

What growth value was documented for this compound, `O=C(Nc1ccc(-n2ccc3c(NC(=O)c4ccccc4)nccc32)cc1)c1ccc(Cl)c(C(F)(F)F)c1` ? 54.6

---

# Tested on: LOX IMVI melanoma
# EXPERIMENT: NCI-60 one-dose screen, 48 h (100 = growth as untreated, 0 = no growth, -100 = all killed)
# CONDITION: 10 µM unless noted
This is part of a sample that, as a whole, favours compounds with a hit. Of some 83,000 tested, about 20% had one in any assay.
# label = yes if growth < 70% else no

Please review the entries below; each comes with its answer.
MOLECULE | ASSIGNED_LABEL
FC(F)(F)c1cccc([Si](F)(c2cccc(C(F)(F)F)c2)c2cccc(C(F)(F)F)c2)c1 | no
COc1cccc(-c2nc3sccn3c2-c2ccnc(NCCNC(=O)c3ccccc3)n2)c1 | yes
CNCCCOc1c(Br)cc(CCNC(=O)/C(Cc2ccc(OC)c(Br)c2)=N/O)cc1Br | yes
CN1CCN(C(=O)/C=C/c2ccc([N+](=O)[O-])o2)CC1 | yes
COc1cc(/C=C2/Oc3cc4occc4c(OC)c3C2=O)ccc1OCC(=O)Nc1ccncc1 | no
CC(C)[C@@H]1NC(=O)[C@]2(C)CSC(=N2)c2ccnc(c2)CNC(=O)C[C@@H](/C=C/CCS)OC1=O | yes
O=C(O)c1cccc2oc(-c3ccccc3O)nc12 | yes
CC(C)(C)NC(C1=CC(C)(C)c2ccccc2C1=O)c1ccccc1 (centres undefined) | yes

Hi there! Is growth for `COc1ccc(-n2c(-c3ccc(NC(=O)CCCl)cc3)nnc2-c2cc(OC)c(OC)c(OC)c2)cc1` below 70%, do you know? yes

Hi there! Is growth for `Nc1ncc(-c2ccc3ncnc(Nc4cncc(Cl)c4)c3c2)cn1` below 70%, do you know? yes

Hi there! Is growth for `FC(F)(F)c1cn(CC2CNC2)c2ncnc(Cl)c12` below 70%, do you know? no

Hi there! Is growth for `C=CC(=O)Nc1cccc(Nc2nc(Nc3ccc(OCCOC(F)F)cc3)ncc2F)c1` below 70%, do you know? yes

Hi there! Is growth for `CCc1c(C)c2cc3nc(NCc4ccccc4)oc3c(C)c2oc1=O` below 70%, do you know? no

Hi there! Is growth for `O=[N+]([O-])c1cccc(C(c2ccccc2)c2ccccc2)c1` below 70%, do you know? no

Hi there! Is growth for `Cc1cccc(NCS(=O)(=O)O)c1` below 70%, do you know? no

Hi there! Is growth for `O=C(Nc1cccc([N+](=O)[O-])c1)Nc1cccc([N+](=O)[O-])c1` below 70%, do you know? yes

Hi there! Is growth for CCN(CC)c1ccc(C2CC(c3cc(OC)c(OC)c(OC)c3)=NN2)cc1 (centres undefined) below 70%, do you know? yes

Hi there! Is growth for `CCn1c(C)nc([N+](=O)[O-])c1Sc1nc(N)nc2nc[nH]c12` below 70%, do you know? yes

---

# Tested on: UACC-62 melanoma
# EXPERIMENT: NCI-60 one-dose screen, 48 h (100 = growth as untreated, 0 = no growth, -100 = all killed)
# CONDITION: 10 µM unless noted
The panel holds about 83,000 compounds, 20% with a hit somewhere; the sample as a whole holds those more often. Activity calls are given as the source filed them. How the source made its calls: active means growth percent below 10; inactive means the rest.
# key: entry, value: growth

COMPOUND | growth
Nc1nccc(=S)[nH]1 | 90% (inactive)

What growth value was documented for this compound, `CCN(CC)CCC(C(=O)O)(c1ccccc1)c1ccccc1` ? 97.9% (inactive)

What growth value was documented for this compound, `C=C1C(=O)O[C@H]2[C@H]1CC/C(COC(=O)c1ccccc1)=C\CC[C@@]1(C)O[C@@H]21` ? -66.9% (active)

What growth value was documented for this compound, `CCc1c(C)c2cc3c(c(C)c2oc1=O)OCC(=O)N3` ? 69.6% (inactive)

What growth value was documented for this compound, `COc1cc(NS(C)(=O)=O)ccc1Cc1c2ccccc2nc2ccccc12` ? 26.1% (inactive)

What growth value was documented for this compound, `c1ccc(OCC[P+](c2ccccc2)(c2ccccc2)c2ccccc2)cc1` ? 8.25% (active)

What growth value was documented for this compound, `CCn1c(C)nc([N+](=O)[O-])c1Sc1nc(N)nc2nc[nH]c12` ? 1.74% (active)

What growth value was documented for this compound, `Oc1ccc(Cl)cc1Sc1cc(Cl)ccc1O` ? 58.8% (inactive)

---

# key: entry, value: growth
# Tested on: HCT-15 colon
# EXPERIMENT: NCI-60 one-dose screen, 48 h (100 = growth as untreated, 0 = no growth, -100 = all killed)
# CONDITION: 10 µM unless noted
The panel holds about 83,000 compounds, 20% with a hit somewhere; the sample as a whole holds those more often.
Field: numeric (%). Do not append units.

Consider the following illustrative entries.
CHEM_SMILES | growth / %
O=C(Nc1ccc(-n2ccc3c(NC(=O)c4ccccc4)nccc32)cc1)c1cccc(C(F)(F)F)c1 | 14.1
Nc1nc(Cl)cc(NCc2ccc(CNc3cc(Cl)nc(N)n3)cc2)n1 | 100

Next compound, please.
What growth value was documented for this compound, `NCC(=O)NS(=O)(=O)OC[C@H]1O[C@@H](n2cnc3c(N)ncnc32)[C@H](O)[C@@H]1O` ? 11.4

---

# System: UACC-62 melanoma
# EXPERIMENT: NCI-60 one-dose screen, 48 h
# CONDITION: 10 µM unless noted
Compounds without any hit were thinned out: in the full panel of roughly 83,000, 20% have a hit. Active and inactive are the calls of the source. Rule for the calls: active = growth percent below 10; inactive = the rest.
Choose one outcome from this list and give only that: active, inactive

Please review the entries below; each comes with its answer.
COMPOUND | ASSIGNED_LABEL
Nc1ncnc2c1c(C(F)(F)F)cn2[C@@H]1O[C@H](CO)[C@@H](O)[C@H]1O | active
Cc1cccc[n+]1CCC[n+]1ccccc1C | inactive
COc1ccc(-c2nnc(SCC(=O)Nc3ccc(C(=O)/C=C/c4ccc(Cl)cc4)cc3)o2)cc1OC | inactive
CC(C)(CCN=C(N)Nc1ccccn1)c1ccc(C(F)(F)F)cc1 | active
COc1cccc(-c2nc3sccn3c2-c2ccnc(NCCNC(=O)c3ccccc3)n2)c1 | inactive

Now look at this one.
Could you check what this test reported for CC1(C)Cc2c(Br)c(Br)c(Br)c(OCC(O)CN3CCN(c4ccccn4)CC3)c2O1 (stereo unspecified) ? inactive

---

# Tested on: UACC-62 melanoma
# EXPERIMENT: NCI-60 one-dose screen, 48 h (100 = growth as untreated, 0 = no growth, -100 = all killed)
# CONDITION: 10 µM unless noted
About 83,000 compounds went through this panel and 20% of them were active in at least one assay; those are over-represented in the sample as a whole.
# key: entry, value: growth
Field: numeric (%). Do not append units.

Consider the following illustrative entries.
COMPOUND | TEST_TARGET | growth [%]
COc1ccc(SC2c3ccc(O)cc3Oc3nc(N)c(C#N)c(N)c32)cc1 (configuration not stated) | UACC-62 melanoma | 105
Cc1cn(C2CC(N=[N+]=[N-])C(COP(=O)(O)OP(=O)(O)OP(=O)(O)O)O2)c(=O)[nH]c1=O (configuration not stated) | UACC-62 melanoma | 112
CN1C(=O)C2(SCC(C(=O)NCC(=O)OC(C)(C)C)N2C(=O)C2CCCCC2)c2ccccc21 (configuration not stated) | UACC-62 melanoma | 91.8

What growth value was documented for this compound, `C#C[C@@]1(O)[C@@H](CO)O[C@@H](n2cc(C(F)(F)F)c3c(N)ncnc32)[C@@H]1O` ? -1.29

What growth value was documented for this compound, O=S(c1ccccc1)c1ccc2nnnn2n1 (configuration not stated) ? 98.6

What growth value was documented for this compound, `C[C@H]1C=C(C[C@@H](O)CCCCCCCCCC[C@@H](O)[C@H]2CCC(=O)O2)C(=O)O1` ? 92.2

Value source: PubChem BioAssay (NCI)
